B1: mRNA-splicing (parent)
chain: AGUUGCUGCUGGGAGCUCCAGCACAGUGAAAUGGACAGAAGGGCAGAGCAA

# Variants of: B1
# experimentDescription: exon inclusion enrichment index; higher = more inclusion; WT1 exon 5 minigene, HEK293
observedProperty: exon inclusion enrichment index
Quick one: just the number, no unit, thanks!

C6A U7A C9A U10A U17A : 0.63

In: For the variant G5U G8U C9U G11C G12C , report exon inclusion enrichment index.
Out: 0.0331

In: For the variant G5U C6A U7G G8U C9U , report exon inclusion enrichment index.
Out: 0.013

In: For the variant G2A U3G G5A U7C G8A U10C , report exon inclusion enrichment index.
Out: 1.76

In: For the variant G5C C6U G8C C9U U10C G46A A47C , report exon inclusion enrichment index.
Out: 2.56

In: For the variant G5U C6G U7C G8A U10C , report exon inclusion enrichment index.
Out: 2.27

In: For the variant C6A U7A C9A U10A G41C , report exon inclusion enrichment index.
Out: 2.07

In: For the variant G5C C6A U7C G8A U10A C36A A37G , report exon inclusion enrichment index.
Out: 0.0468

In: For the variant C6A U7C C9A U10C A29C A30C , report exon inclusion enrichment index.
Out: 3.72

In: For the variant G8U , report exon inclusion enrichment index.
Out: 1.2

In: For the variant C6A U7C C9A U10C G26U U27G , report exon inclusion enrichment index.
Out: 4.12

In: For the variant G5C C6A U7C G8A U10A A47C G48C , report exon inclusion enrichment index.
Out: 0.224

In: For the variant G5A C6U U7A G8U C9A G34A A35U , report exon inclusion enrichment index.
Out: 0.00832

In: For the variant G5A C6U U7A G8U C9A A39G A40U , report exon inclusion enrichment index.
Out: 0.00682

In: For the variant G5U C6A G8U C9U , report exon inclusion enrichment index.
Out: 0.0752

In: For the variant G2U U3C , report exon inclusion enrichment index.
Out: 0.216

In: For the variant G5C C6U G8C C9U U10C G41U , report exon inclusion enrichment index.
Out: 2.03

In: For the variant G5C C6U U7G C9A , report exon inclusion enrichment index.
Out: 1.42
